Target: T1, CD19 (UniProt P15391 20-556, limits assumed)
T1 sequence (looked up): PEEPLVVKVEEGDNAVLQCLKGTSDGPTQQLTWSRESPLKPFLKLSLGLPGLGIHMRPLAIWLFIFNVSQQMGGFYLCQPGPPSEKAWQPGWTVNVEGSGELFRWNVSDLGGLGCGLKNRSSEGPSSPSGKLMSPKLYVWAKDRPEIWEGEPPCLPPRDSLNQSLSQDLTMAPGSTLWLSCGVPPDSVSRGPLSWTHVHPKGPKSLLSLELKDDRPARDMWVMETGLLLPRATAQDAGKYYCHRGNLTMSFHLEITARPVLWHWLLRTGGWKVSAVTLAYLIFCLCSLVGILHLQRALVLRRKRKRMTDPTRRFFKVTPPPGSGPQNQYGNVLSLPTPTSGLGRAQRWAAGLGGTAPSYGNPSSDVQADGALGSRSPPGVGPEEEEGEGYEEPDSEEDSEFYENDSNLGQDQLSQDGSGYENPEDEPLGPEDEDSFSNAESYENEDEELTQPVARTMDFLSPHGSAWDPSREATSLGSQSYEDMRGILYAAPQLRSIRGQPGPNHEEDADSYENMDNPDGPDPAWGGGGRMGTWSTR
Test: cell-based or functional assay
Assignment: determine reported EC50 of cytotoxicity (LDH), sCAR-T cells + switch vs CD19+ RS4;11, assay DTR-5-15 (PBMC) for the given binders.
Value and unit, in that order.

For this binder ( hFMCL2/H4a WT (antibody, V domains shown) VH: QVQLQESGPGLVKPSETLSVTCTVSGVSLPDYGVSWIRQPPGKGLEWLGVIWGSETTYYNPSLKSRLTISKDTSKNQVSLKMSSLTAADTAVYYCAKHYYYGGSYAMDYWGQGTLVTVSS VL: DIQMTQSPSSLSASVGDRVTITCRASQDISKYLNWYQQKPGKAPKLLIYHTSRLHSGVPSRFSGSGSGTDYTLTISSLQPEDFATYYCQQGATLPYTFGQGTKLEIK ), measured EC50 of cytotoxicity (LDH), sCAR-T cells + switch vs CD19+ RS4;11, assay DTR-5-15 (PBMC) is 43.2 pM

For this binder ( hFMCL2a-LCNT/hFMCH4c (Fab, V domains shown) VH: QVQLQESGPGLVKPSETLSVTCTVSGVSLPDYGVSWIRQPPGKGLEWLGVIWGSETTYYNSALKSRLTISKDNSKNQVSLKMSSLTAADTAVYYCAKHYYYGGSYAMDYWGQGTLVTVSS VL: DIQMTQSPSSLSASVGDRVTITCRASQDISKYLNWYQQKPGKAVKLLIYHTSRLHSGVPSRFSGSGSGTDYTLTISSLQPEDFATYYCQQGATLPYTFGQGTKLEIK ), measured EC50 of cytotoxicity (LDH), sCAR-T cells + switch vs CD19+ RS4;11, assay DTR-5-15 (PBMC) is 4.43 pM

For this binder ( hFMCL2a-LCNT/hFMCH4b (Fab, V domains shown) VH: QVQLQESGPGLVKPSETLSVTCTVSGVSLPDYGVSWIRQPPGKGLEWLGVIWGSETTYYNPSLKSRLTISKDNSKNQVSLKMSSLTAADTAVYYCAKHYYYGGSYAMDYWGQGTLVTVSS VL: DIQMTQSPSSLSASVGDRVTITCRASQDISKYLNWYQQKPGKAVKLLIYHTSRLHSGVPSRFSGSGSGTDYTLTISSLQPEDFATYYCQQGATLPYTFGQGTKLEIK ), measured EC50 of cytotoxicity (LDH), sCAR-T cells + switch vs CD19+ RS4;11, assay DTR-5-15 (PBMC) is 10.4 pM
